- Test system: PARP1
- experimental_details: Therapeutic index, ratio of LD40 for human HCT116 cells to drug concentration that reduced half the amount of streptozotocin required to inhibit PARP1-mediated 90% human HCT116 cell growth
- Assay type: cell-based, HCT-116
- experimental_setup: read-out: TI
measured_quantity: selectivity ratio

Cn1nc(-c2cccs2)c2c3c(c(=O)[nH]c21)CCC3 : 3.6
Cn1nc(-c2ccccc2)c2c1NC(=O)C1CCCCC21 (stereo not drawn) : 19.7
Cn1nc(-c2ccccc2)c2c3c(c(=O)[nH]c21)CSC3 : 1.4
Cn1nc(-c2ccccc2)c2c3c(c(=O)[nH]c21)CCC3 : 1.6
Cc1nn(C)c2[nH]c(=O)c3c(c12)CCC3 : 1.4

----------
Below is a list of entries, each paired with its recorded IC50 value.
- target_desc: Poly [ADP-ribose] polymerase 1 (Homo sapiens, UniProt P09874)
- Sequence (P09874 whole entry): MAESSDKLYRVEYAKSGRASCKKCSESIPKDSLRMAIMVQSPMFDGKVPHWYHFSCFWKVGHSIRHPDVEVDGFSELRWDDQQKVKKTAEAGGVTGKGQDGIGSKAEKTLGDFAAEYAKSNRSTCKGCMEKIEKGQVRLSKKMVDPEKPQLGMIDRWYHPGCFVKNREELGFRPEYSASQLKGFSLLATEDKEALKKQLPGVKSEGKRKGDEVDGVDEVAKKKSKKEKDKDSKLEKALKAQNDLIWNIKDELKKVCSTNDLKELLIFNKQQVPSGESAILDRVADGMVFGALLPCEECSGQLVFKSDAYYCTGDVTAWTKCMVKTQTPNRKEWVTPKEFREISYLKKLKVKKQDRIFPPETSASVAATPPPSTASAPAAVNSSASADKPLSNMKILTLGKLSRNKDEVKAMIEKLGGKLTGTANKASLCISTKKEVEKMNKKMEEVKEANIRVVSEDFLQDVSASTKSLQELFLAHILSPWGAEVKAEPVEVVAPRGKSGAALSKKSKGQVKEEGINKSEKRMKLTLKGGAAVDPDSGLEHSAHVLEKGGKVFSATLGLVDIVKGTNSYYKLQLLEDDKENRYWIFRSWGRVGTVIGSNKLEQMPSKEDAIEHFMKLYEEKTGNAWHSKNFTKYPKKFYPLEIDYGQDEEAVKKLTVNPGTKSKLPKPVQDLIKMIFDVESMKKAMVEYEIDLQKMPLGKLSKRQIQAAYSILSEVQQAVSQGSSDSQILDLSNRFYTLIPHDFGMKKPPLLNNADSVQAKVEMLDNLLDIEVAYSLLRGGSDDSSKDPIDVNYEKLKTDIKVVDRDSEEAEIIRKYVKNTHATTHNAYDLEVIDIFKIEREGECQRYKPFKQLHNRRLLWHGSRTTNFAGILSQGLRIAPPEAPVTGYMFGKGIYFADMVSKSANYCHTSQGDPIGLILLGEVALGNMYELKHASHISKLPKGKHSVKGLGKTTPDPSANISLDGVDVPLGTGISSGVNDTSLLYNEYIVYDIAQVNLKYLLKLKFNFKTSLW
measured_quantity: IC50 (nM)

Cn1nc(-c2cccs2)c2c3c(c(=O)[nH]c21)CCC3 : 149
Cn1nc(-c2ccccc2)c2c3c(c(=O)[nH]c21)CCC3 : 106
Cc1nn(C(C)(C)C)c2[nH]c(=O)c3c(c12)CSC3 : 1840
Cc1cccc2c1CCNC2=O : 160
COc1ccc(-c2nc3c(C(N)=O)cccc3[nH]2)cc1 : 60
Cc1nn(C)c2[nH]c(=O)c3c(c12)CCC3 : 29.8
Cc1nn(C)c2[nH]c(=O)c3c(c12)CSC3 : 92.7
Cn1nc(-c2ccccc2)c2c3c(c(=O)[nH]c21)CSC3 : 110
Cn1nc(-c2cccs2)c2c3c(c(=O)[nH]c21)CCCC3 : 6.9

----------
- Test system: PARP1
- experimental_details: Therapeutic index, ratio of LD40 for human HCT116 cells to drug concentration that reduced half the amount of streptozotocin required to inhibit PARP1-mediated 90% human HCT116 cell growth
- Format: cell-based, HCT-116
- experimental_setup: read-out: TI
Below is a list of entries, each paired with its recorded selectivity ratio value.
measured_quantity: selectivity ratio

Cn1nc(-c2cccs2)c2c3c(c(=O)[nH]c21)CCCC3 : > 32.9
Cc1nn(C)c2[nH]c(=O)c3c(c12)CSC3 : > 1.8
Cc1nn(C)c2[nH]c(=O)c3c(c12)CCCC3 : > 6.6
